assayExplanation: self-splicing fitness, log relative to wild type (ln ratio); higher = more splicing; Tetrahymena group I intron in knt gene, E. coli kanamycin selection, DiMSum; sequences stand for … in CUCUCU…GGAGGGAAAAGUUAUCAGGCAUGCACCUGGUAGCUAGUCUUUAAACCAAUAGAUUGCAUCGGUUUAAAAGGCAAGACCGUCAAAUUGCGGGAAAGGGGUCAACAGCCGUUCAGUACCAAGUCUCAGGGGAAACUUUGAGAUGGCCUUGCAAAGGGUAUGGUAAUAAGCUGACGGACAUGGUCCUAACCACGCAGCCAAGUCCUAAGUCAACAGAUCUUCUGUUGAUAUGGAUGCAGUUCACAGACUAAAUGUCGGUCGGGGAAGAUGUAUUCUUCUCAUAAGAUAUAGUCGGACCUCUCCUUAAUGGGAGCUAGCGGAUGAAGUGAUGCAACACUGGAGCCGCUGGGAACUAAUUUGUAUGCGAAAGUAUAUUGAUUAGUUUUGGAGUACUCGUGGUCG;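 also: selection with 25 µg/mL kanamycin versus none on LB agar overnight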
recordedConditions: 37 °C
quantity: self-splicing fitness (ln)

- ACAUAGCAAUAUUACGGUUC: -2.51
- CAAGAGCAAUAUUACGGCGC: -2.17
- UCGGAGCAAUAUUACGUGGC: -1.95
- GGUGAGCAAUAUUACGCAGU: -2.45
- UGGUAGCAAUAUUACGUCGA: 0.144
- ACUCAGCAAUAUUACGCGCA: -0.153
- AGCGAGCAAUAUUACGACCU: -0.654
- UUGAAGCAAUAUUACGGCCA: -0.046

* * *

assayExplanation: self-splicing fitness, log relative to wild type (ln ratio); higher = more splicing; Tetrahymena group I intron in knt gene, E. coli kanamycin selection, DiMSum; sequences stand for … in CUCUCU…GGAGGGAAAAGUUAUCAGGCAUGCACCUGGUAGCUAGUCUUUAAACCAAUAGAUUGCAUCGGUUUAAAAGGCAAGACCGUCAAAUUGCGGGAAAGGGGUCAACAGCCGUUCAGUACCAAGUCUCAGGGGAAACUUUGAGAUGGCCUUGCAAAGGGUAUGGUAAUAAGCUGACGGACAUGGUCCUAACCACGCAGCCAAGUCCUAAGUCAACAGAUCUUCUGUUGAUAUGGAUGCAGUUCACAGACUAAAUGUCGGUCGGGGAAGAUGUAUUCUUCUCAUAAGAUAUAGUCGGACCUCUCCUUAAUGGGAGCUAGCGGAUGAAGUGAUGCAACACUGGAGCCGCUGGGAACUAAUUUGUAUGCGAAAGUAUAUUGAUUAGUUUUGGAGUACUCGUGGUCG
recordedConditions: 37 °C
Catalogue of sequences with associated self-splicing fitness (ln)
quantity: self-splicing fitness (ln)

• ACGCAGCAAUAUUACGCAAA = -1.77
• GUCAAGCAAUAUUACGCGGA = -2.02
• CCUGAGCAAUAUUACGUACC = -2.27
• UGCGAGCAAUAUUACGUACA = 0.427
• GGGCAGCAAUAUUACGAUUG = -2.84
• CAUGAGCAAUAUUACGGCCG = -0.62
• GCCAAGCAAUAUUACGAGUA = -1.61
• CCUAAGCAAUAUUACGGUAA = -2.73

* * *

assayExplanation: self-splicing fitness, log relative to wild type (ln ratio); higher = more splicing; Tetrahymena group I intron in knt gene, E. coli kanamycin selection, DiMSum; sequences stand for … in CUCUCU…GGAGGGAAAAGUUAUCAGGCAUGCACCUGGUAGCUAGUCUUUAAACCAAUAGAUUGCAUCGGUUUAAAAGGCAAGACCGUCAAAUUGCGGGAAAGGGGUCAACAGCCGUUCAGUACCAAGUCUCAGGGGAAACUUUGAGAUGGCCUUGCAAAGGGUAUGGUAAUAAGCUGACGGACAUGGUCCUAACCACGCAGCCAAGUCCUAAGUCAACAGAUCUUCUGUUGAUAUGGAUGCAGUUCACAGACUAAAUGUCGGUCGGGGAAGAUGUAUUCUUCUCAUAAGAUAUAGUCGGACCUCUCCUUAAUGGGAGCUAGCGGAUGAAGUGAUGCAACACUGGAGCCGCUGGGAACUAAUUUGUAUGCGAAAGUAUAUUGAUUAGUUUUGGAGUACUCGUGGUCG
recordedConditions: 30 °C
Label y when self-splicing fitness (ln) is at or above -2; anything below gets n.

- AAUUAGCAAUAUUACGGUCG: y
- CCAUAGCAAUAUUACGUGGU: n
- GGUUAGCAAUAUUACGGGAG: n
- ACGCAGCAAUAUUACGCCCU: y
- GAUAAGCAAUAUUACGAUGU: y
- CUCCAGCAAUAUUACGGAAU: n
- GACGAGCAAUAUUACGUGGU: n
- AGUAAGCAAUAUUACGAUUG: n
- CCGUAGCAAUAUUACGGCUA: n
- CUCAAGCAAUAUUACGGCAA: n
- AGGUAGCAAUAUUACGUGUG: n
- UACGAGCAAUAUUACGUUUU: n
- UCUGAGCAAUAUUACGUGCA: n
- CCGGAGCAAUAUUACGGGUA: n
- GUCUAGCAAUAUUACGGAAC: y
- UCGCAGCAAUAUUACGUCCU: y
- UCACAGCAAUAUUACGGAGG: n
- UUAAAGCAAUAUUACGCCUC: n
- GAGGAGCAAUAUUACGUCGA: n
- AAACAGCAAUAUUACGAAAC: n
- UCUCAGCAAUAUUACGUGAU: n
- UAAAAGCAAUAUUACGGGAG: n
- UAGUAGCAAUAUUACGCUGA: n
- CAGCAGCAAUAUUACGCGUG: n
- CCCUAGCAAUAUUACGUGGA: y
- CACCAGCAAUAUUACGAUCG: y
- GCACAGCAAUAUUACGUUGA: y
- UUGAAGCAAUAUUACGUCCG: y
- AAGUAGCAAUAUUACGCGAG: y
- GAAGAGCAAUAUUACGCGUG: n
- AGUCAGCAAUAUUACGAGAC: n

* * *

assayExplanation: self-splicing fitness, log relative to wild type (ln ratio); higher = more splicing; Tetrahymena group I intron in knt gene, E. coli kanamycin selection, DiMSum; sequences stand for … in CUCUCU…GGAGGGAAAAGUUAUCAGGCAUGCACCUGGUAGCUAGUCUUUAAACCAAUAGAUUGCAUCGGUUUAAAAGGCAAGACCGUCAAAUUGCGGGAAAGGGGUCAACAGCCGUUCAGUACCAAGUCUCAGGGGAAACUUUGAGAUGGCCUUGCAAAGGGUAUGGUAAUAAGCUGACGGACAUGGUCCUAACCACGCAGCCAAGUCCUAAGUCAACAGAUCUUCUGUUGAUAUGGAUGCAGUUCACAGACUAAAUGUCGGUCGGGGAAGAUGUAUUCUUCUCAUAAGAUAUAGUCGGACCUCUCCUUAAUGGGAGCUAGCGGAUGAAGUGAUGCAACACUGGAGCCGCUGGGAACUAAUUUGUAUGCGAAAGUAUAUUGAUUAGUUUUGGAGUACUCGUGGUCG
recordedConditions: 37 °C
Each entry belongs to exactly one class, chosen by where its self-splicing fitness (ln) falls: bottom = under -2, middle = from -2 up to -1, top = -1 and over

- UAAUAGCAAUAUUACGAAAU: bottom
- UCGUAGCAAUAUUACGCGAU: bottom
- CGUCAGCAAUAUUACGGUGC: bottom
- CGACAGCAAUAUUACGGUAA: middle
- UGCCAGCAAUAUUACGCGGU: bottom
- CUUGAGCAAUAUUACGUAUG: middle
- UGCUAGCAAUAUUACGCACA: top
- AUAAAGCAAUAUUACGCAAG: top
- UUGCAGCAAUAUUACGUUGA: middle
- AGCAAGCAAUAUUACGGGCC: bottom
- GCGUAGCAAUAUUACGAAAU: top
- AGCUAGCAAUAUUACGCUGU: bottom
- CUUAAGCAAUAUUACGGGGU: bottom
- UGGAAGCAAUAUUACGUCGA: top
- UGAGAGCAAUAUUACGGGAU: middle
- ACUCAGCAAUAUUACGCCGC: middle
- CAGGAGCAAUAUUACGACGU: bottom
- GGUUAGCAAUAUUACGAAUA: middle
- AAGUAGCAAUAUUACGUUUU: bottom
- GCUUAGCAAUAUUACGGAGU: top
- GCCCAGCAAUAUUACGCGAA: top
- CGUUAGCAAUAUUACGGAAU: bottom
- GUAGAGCAAUAUUACGUCGG: middle
- AUGCAGCAAUAUUACGUAUU: middle
- GUUCAGCAAUAUUACGAACA: middle
- CAGAAGCAAUAUUACGAUCA: middle
- CAUAAGCAAUAUUACGGGAU: bottom
- AGCCAGCAAUAUUACGUAUA: bottom
- UCUCAGCAAUAUUACGGCGA: top
- CCAGAGCAAUAUUACGCACG: top
- ACGCAGCAAUAUUACGGAUA: middle
- AGAUAGCAAUAUUACGCUCU: middle
- CACCAGCAAUAUUACGUACG: top
